The measurements presented in this section are drawn from PubChem BioAssay.

tested on: Hepatitis C virus NS3 helicase; experiment: HCV NS3 helicase inhibitors, primary screen, biochemical, fluorescence polarization, LOPAC1280 library (AID 687035); conditions: Purified HCV NS3 helicase, Cy5-dT15 ssDNA binding fluorescence polarization; stronger effect = higher value; concentration not given here
List of inhibition values.
Write it as a number; the unit % goes unstated.

>>> df
                                   molecule                  assayed_system  unit_text  obs_value
0  CCN(CC)CC#CCOC(=O)C(O)(c1ccccc1)C1CCCCC1 (stereo unspecified)  Hepatitis C virus NS3 helicase          %         -3

Lookup: Could you share what inhibition was measured for Clc1ccc2c(c1)N=C(N1CCNCC1)c1ccccc1N2 , tested on Hepatitis C virus NS3 helicase?
Found: -2

Lookup: Could you share what inhibition was measured for COC(=O)c1c(C)[nH]c(C)c1C(=O)c1ccccc1Cc1ccccc1 , tested on Hepatitis C virus NS3 helicase?
Found: -1

Lookup: Could you share what inhibition was measured for N#Cc1cc2nc(O)c(O)nc2cc1[N+](=O)[O-] , tested on Hepatitis C virus NS3 helicase?
Found: -1

Lookup: Could you share what inhibition was measured for CNC(=O)c1cc2c(cn1)[nH]c1ccccc12 , tested on Hepatitis C virus NS3 helicase?
Found: 0

Lookup: Could you share what inhibition was measured for CC(C)C[C@H](NC(=O)[C@@H](O)[C@H](N)Cc1ccccc1)C(=O)O , tested on Hepatitis C virus NS3 helicase?
Found: -4

====

test: differential killing of epithelial or mesenchymal cells, primary screen, imaging, PC-3E GFP, TEM4-18 mCherry, co-culture (AID 1345086); settings: imaging cell counts, at 1 µM, actives lie on both sides, counts scaled to control wells, 1 = unselective;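 further: normalised mesenchymal count divided by normalised epithelial count so high means epithelial killing; cells exposed to compound for 72 h before imaging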
experimental_readout: red/green cell ratio (normalised)
Give the figure only, with no unit attached.

Worked examples follow.
molecule	red/green cell ratio (normalised)
C=C1OC(=O)[C@]2([C@H](C)C=C[C@H](O)[C@@H]2O)[C@@H]1O	0.98
COc1cc(O)c2c(c1)C(=O)C1=C(C2=O)C(OC)OC1 (centres undefined)	1.02
C[C@@H]1C(=O)NC(Cc2ccccc2)C(=O)N2CCCC[C@H]2C(=O)O[C@H]([C@@H](C)CCCC[C@@H](C)O)C[C@H]1O (some centres undefined)	0.9
CC(=O)O[C@@H]1CC2C(C)(C)C(=O)C3OC3[C@]2(C)C2CC[C@@]3(C)[C@H](c4ccoc4)OC(=O)C4OC43[C@@]21C (some centres undefined)	1.04
CC(C)(C)NC[C@H](O)COc1ccccc1C1CCCC1	1.04

Lookup: For the molecule shown here, CC(=O)OC1CCC2(C)C3CC(=O)C4(C)C(CC5OC6(CCC(C)CO6)[C@@H](C)C54)C3CC[C@H]2C1 (some centres undefined) , give the reported red/green cell ratio (normalised).
Found: 0.89

Lookup: For the molecule shown here, CC(=O)OCC(OC(C)=O)C(OC(C)=O)C(OC(C)=O)C(OC(C)=O)C(COC(C)=O)OC(C)=O (centres undefined) , give the reported red/green cell ratio (normalised).
Found: 1.06

Lookup: For the molecule shown here, COC(=O)C1O[C@H](OC)[C@@H](OCc2ccccc2)[C@@H](OCc2ccccc2)C1O (some centres undefined) , give the reported red/green cell ratio (normalised).
Found: 1

Lookup: For the molecule shown here, Nc1nc2c(c(=O)[nH]1)NC(CNc1ccc(C(=O)NC(CCC(=O)O)C(=O)O)cc1)=CN2 (centres undefined) , give the reported red/green cell ratio (normalised).
Found: 0.83

Lookup: For the molecule shown here, COc1ccc2oc(-c3ccccc3OC)cc(=O)c2c1 , give the reported red/green cell ratio (normalised).
Found: 0.85

Lookup: For the molecule shown here, COC(=O)c1c[nH]c2c(OC)c(F)c(F)cc2c1=O , give the reported red/green cell ratio (normalised).
Found: 1.14

Lookup: For the molecule shown here, O=C1NCC[C@@H]1Oc1ccc(Oc2cnc3ccc(Cl)cc3n2)cc1 , give the reported red/green cell ratio (normalised).
Found: 0.74

Lookup: For the molecule shown here, NC[C@@H]1O[C@H](O[C@@H]2[C@@H](CO)OC(O[C@@H]3[C@@H](O)[C@H](N)C[C@H](N)[C@H]3OC3O[C@H](CN)[C@@H](O)[C@H](O)[C@H]3N)[C@@H]2O)[C@H](N)[C@@H](O)[C@@H]1O (some centres undefined) , give the reported red/green cell ratio (normalised).
Found: 0.97

Lookup: For the molecule shown here, N=C(N)SCCN , give the reported red/green cell ratio (normalised).
Found: 0.88

Lookup: For the molecule shown here, CC1(C)C2CC[C@]3(C)C(C(=O)C=C4[C@H]5C[C@@](C)(C(=O)O)CC[C@]5(C)CC[C@]43C)[C@@]2(C)CC[C@@H]1O (some centres undefined) , give the reported red/green cell ratio (normalised).
Found: 1.07

Lookup: For the molecule shown here, COC(=O)c1c(Cl)nc(Cl)c2ccccc12 , give the reported red/green cell ratio (normalised).
Found: 1.07

Lookup: For the molecule shown here, C[C@]12C=CC(=O)C=C1CCC1C2[C@@H](O)C[C@@]2(C)C1CC[C@]2(O)C(=O)COC(=O)CCC(=O)O (some centres undefined) , give the reported red/green cell ratio (normalised).
Found: 0.99

Lookup: For the molecule shown here, COC(=O)[C@]12Oc3c(c(O)cc4c3C3C=C[C@]5(C4)C(=C(O)c4c(O)cc(C)cc4[C@@H]5OC(C)=O)C3=O)C(O)=C1C(=O)C=C[C@@H]2O , give the reported red/green cell ratio (normalised).
Found: 0.99

Lookup: For the molecule shown here, C=CCSC[C@@H](N)C(=O)O , give the reported red/green cell ratio (normalised).
Found: 0.86

====

List of growth inhibition values.
assay: inhibition of 3D7 malaria parasite growth – strain 3D7 (AID 2306);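 further: 0% = DMSO wells and 100% = chloroquine plus artemisinin control wells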; conditions: P. falciparum 3D7 erythrocytic growth, LDH absorbance, 72 h; at 2 µM; stronger effect = higher value
Write it as a number; the unit % goes unstated.

>>> df
                           molecular_string  obs_value
0  Cc1cccc2[nH]c(-c3cccc(-c4cccc(NC(=O)Cc5cnc[nH]5)c4)c3)nc12        102
1    NC(=O)c1ccccc1Nc1nc(Nc2ccn[nH]2)ncc1Cl         96
2  CCc1cc(-c2onc(C(F)(F)F)c2-c2ccccc2)c(O)cc1OC         98
3                    COc1ccc2nc(N)nc(C)c2c1         90

Please turn your attention to the following entry.
Lookup: For the compound shown here, Cc1c(C(C)(C)C)ccc2nc(N)nc(N)c12 , give the reported growth inhibition.
Found: 89

====

List of cell count values.
assay: sensitizers of A549 cells to miR-34 induction, primary screen, imaging, A549 dox-inducible miR-34, nuclei and caspase counts (AID 1347080); details: A549 miR-34 inducible, Hoechst nuclei count, 48 h; measured here: total cells without miR-34 induction
Give the figure only, with no unit attached.

                molecular_string  obs_value
0  O=C(O)Cc1ccc([N+](=O)[O-])cc1      10100

Lookup: For the compound shown here, COc1cc(O)cc(C(=O)c2ccccc2)c1S(=O)(=O)O , give the reported cell count.
Found: 10000

Lookup: For the compound shown here, Cc1cc(-c2ccc(N=Nc3ccc4c(S(=O)(=O)O)cc(S(=O)(=O)O)c(N)c4c3O)c(C)c2)ccc1N=Nc1ccc2c(S(=O)(=O)O)cc(S(=O)(=O)O)c(N)c2c1O , give the reported cell count.
Found: 9740

====

assay: SU-DIPG-XXV glioma cell viability, MIPE5.0 library, qHTS (AID 1347068);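 on IC50: cells exposed to compound for 48 hours before viability readout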
Results filed as inconclusive are left out. Calls of active or inactive are those of the source. Cut-off not given; nearly all actives show IC50 up to about 30 µM.
Return exactly one item of TRUE for active, FALSE for inactive

Lookup: Any idea what this test logged for COc1c(N2C[C@@H]3CCCN[C@@H]3C2)c(F)cc2c(=O)c(C(=O)O)cn(C3CC3)c12 ?
Found: FALSE

Lookup: Any idea what this test logged for O=c1[nH]nc(Sc2ncc([N+](=O)[O-])s2)n1-c1ccc2c(c1)OCCO2 ?
Found: TRUE

Lookup: Any idea what this test logged for CC(=O)NC[C@H]1CN(c2ccc(N3CCOCC3)c(F)c2)C(=O)O1 ?
Found: FALSE

Lookup: Any idea what this test logged for N[C@H](CSC(c1ccccc1)(c1ccccc1)c1ccccc1)C(=O)O ?
Found: FALSE

Lookup: Any idea what this test logged for O=c1ccn([C@@H]2O[C@H](CO)[C@@H](O)[C@H]2O)c(=O)[nH]1 ?
Found: FALSE

====

experiment: enhancers of glutamate uptake in motor neurons, MN-1 cell line (AID 1612); conditions: MN-1 motor neuron cells, stronger effect = higher value;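 further: tested at 1 µM final; 0% = mean of DMSO vehicle wells on each plate; positive means more glutamate uptake than control and negative means less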
List of glutamate uptake change values.
Write it as a number; the unit % goes unstated.

Worked examples follow.
>>> print(df.to_string())
                                   compound     experimental_readout  obs_value
0  CC1(C)C2CC[C@]3(C)C(C(=O)C=C4[C@@H]5C[C@@](C)(C(=O)O)CC[C@]5(C)CC[C@]43C)[C@@]2(C)CC[C@@H]1O (stereo partly drawn)  glutamate uptake change      -84.4
1  CCC[C@@H]1C[C@@H](C(=O)N[C@H]([C@H]2O[C@H](SC)[C@H](O)[C@@H](O)[C@H]2O)[C@H](C)O)N(C)C1  glutamate uptake change      -19.8
2  CC(C)CC1C(=O)N2CCC[C@H]2C2(O)O[C@](NC(=O)C3C=C4c5cccc6[nH]c(Br)c(c56)C[C@H]4N(C)C3)(C(C)C)C(=O)N12 (stereo partly drawn)  glutamate uptake change        -22
3  CC(C)C[C@@H](NC(=O)OCC1c2ccccc2-c2ccccc21)C(=O)O  glutamate uptake change       4.64
4  CC(=O)Oc1c(C)c(C)c2c(c1C)CCC(C)(CCCC(C)CCCC(C)CCCC(C)C)O2 (stereo not drawn)  glutamate uptake change       6.04

Lookup: For the compound shown here, CC(=O)OCC(=O)[C@@]1(O)CCC2C3CCC4=CC(=O)CC[C@]4(C)C3C(=O)C[C@@]21C (stereo partly drawn) , give the reported glutamate uptake change.
Found: -1.1

Lookup: For the compound shown here, CC(C)[C@@H]1CC[C@@H](C)C[C@H]1O , give the reported glutamate uptake change.
Found: 2.2

Lookup: For the compound shown here, CCN1CCN(C(=O)NC(C(=O)NC2C(=O)N3C(C(=O)O)=C(CSc4nnnn4C)CSC23)c2ccc(O)cc2)C(=O)C1=O (stereo not drawn) , give the reported glutamate uptake change.
Found: 15.1

Lookup: For the compound shown here, CC(=O)O[C@@H]1CC2C(C)(C)C(=O)C=C[C@]2(C)C2CC[C@@]3(C)[C@H](c4ccoc4)OC(=O)[C@H]4O[C@]43[C@@]21C (stereo partly drawn) , give the reported glutamate uptake change.
Found: -11.6

Lookup: For the compound shown here, Cn1nnnc1SCC1=C(C(=O)O)N2C(=O)C(NC(=O)C(O)c3ccccc3)C2SC1 (stereo not drawn) , give the reported glutamate uptake change.
Found: 14.2
